Values compiled from patent US8609680B2.

I'd appreciate it if you could supply log10 of IC50 values for the items below.
Target: human GHSR1a (Homo sapiens)
Construct: expressed in transfected cells; host or cells: HEK293 Tetracycline-Inducible cell line, used as membranes
Experiment: Human Ghrelin SPA Binding Assay
Note the log scale: values are log10 of IC50 expressed in nM.

- compound: "Cc1ccnc(-c2ccc3c(c2)CC[C@H]3N2CC3(CCN(C(=O)Cc4cn5nc(C)sc5n4)CC3)C2)n1"
  measurement: 1.49
- compound: "COc1ccc(CC(=O)N2CCC3(CC2)CN([C@@H]2CCc4cc(-n5nccn5)ccc42)C3)nc1"
  measurement: 0.54
- compound: "COc1ccc(CC(=O)N2CCC3(CC2)CN([C@@H]2CCc4cc(-c5nccc(C)n5)ccc42)C3)nc1"
  measurement: 1.25

For each of the compounds below, note its log10 of IC50.
1. COc1ccc(CC(=O)N2CCC3(CC2)CN(C2CCc4cc(-c5ncc(C)s5)ccc42)C3)nc1 (stereo not shown)
2. Cc1nn2cc(CC(=O)N3CCC4(CC3)CN([C@@H]3CCc5cc(-c6ncccn6)ccc53)C4)nc2s1
3. CCc1cc(-c2ccc3c(c2)CC[C@H]3N2CC3(CCN(C(=O)Cc4ccc(OC)cc4C#N)CC3)C2)ncn1
4. COc1ccc(CC(=O)N2CCC3(CC2)CN(C2CCc4cc(-c5ncc(OC)cn5)ccc42)C3)nc1 (racemic)

Result:
1. 0.88
2. 1.48
3. 1.52
4. 1.55

###

Target: human GHSR1a (Homo sapiens)
Construct: expressed in transfected cells; host or cells: HEK293 Tetracycline-Inducible cell line, used as membranes
Test: Human Ghrelin SPA Binding Assay
Text: The SPA format was utilized for high throughput screening of test compounds and filter binding served for more comprehensive binding characterization. Human Ghrelin SPA Binding Assay
assay endpoint: IC50 (µM)
Numbers only, in µM.

- smiles structure: "O=C(Cc1ccc(C2CC2)cn1)N1CCC2(CC1)CN([C@@H]1CCc3cc(-c4ncccn4)ccc31)C2"
  IC50, µM: 0.00741
- smiles structure: "COc1ccc(CC(=O)N2CCC3(CC2)CN([C@@H]2CCc4cc(-n5cc(C)cn5)ccc42)C3)nc1"
  IC50, µM: 0.029

Your task in this section: give IC50 for each listed record.
1. COc1ccc(NC(C)=O)c(CC(=O)N2CCC3(CC2)CN([C@@H]2CCc4cc(-c5ncccn5)ccc42)C3)c1
2. Cc1cc(CC(=O)N2CCC3(CC2)CN([C@@H]2CCc4cc(-c5ncccn5)ccc42)C3)[nH]n1
3. Cc1ccn2cc(CC(=O)N3CCC4(CC3)CN([C@@H]3CCc5cc(-c6cc(C#N)ncn6)ccc53)C4)nc2c1
4. CCc1ccc(CC(=O)N2CCC3(CC2)CN([C@@H]2CCc4cc(-n5nccn5)ccc42)C3)nc1
5. COc1ccc(CC(=O)N2CCC3(CC2)CN([C@@H]2CCc4cc(-n5cc(C)cn5)ccc42)C3)cc1

Result:
[0.0363, 0.801, 0.0272, 0.0186, 0.0105]

###

Molecular target: human GHSR1a (Homo sapiens, UniProt Q92847)
Construct: expressed in transfected cells; host or cells: HEK293 Tetracycline-Inducible cell line, used as membranes
Sequence (Q92847 whole entry): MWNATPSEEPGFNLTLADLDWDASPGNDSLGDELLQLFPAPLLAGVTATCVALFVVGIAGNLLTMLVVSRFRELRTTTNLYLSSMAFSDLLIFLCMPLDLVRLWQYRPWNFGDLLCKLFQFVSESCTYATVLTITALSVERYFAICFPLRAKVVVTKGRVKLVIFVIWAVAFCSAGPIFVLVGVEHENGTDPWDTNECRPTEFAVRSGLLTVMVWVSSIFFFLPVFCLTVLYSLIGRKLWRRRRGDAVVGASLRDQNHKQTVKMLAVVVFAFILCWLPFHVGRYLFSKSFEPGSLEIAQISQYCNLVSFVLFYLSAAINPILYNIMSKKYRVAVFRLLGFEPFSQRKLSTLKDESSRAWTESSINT
Experiment: Human Ghrelin SPA Binding Assay
Label key: y means IC50 under 30 nM; n means IC50 of 30 nM or more.

- molecule: "COc1ccc(CC(=O)N2CCC3(CC2)CN(C2CCc4cc(-c5ccnc(C)n5)ccc42)C3)cc1 (stereo not drawn) [Example 1D]"
  target: "human GHSR1a (Homo sapiens, UniProt Q92847)"
  qualitative label: "y"
- molecule: "O=C(Cc1cn2ccccc2n1)N1CCC2(CC1)CN([C@@H]1CCc3cc(-c4ncccn4)ccc31)C2 [Example 3Q]"
  target: "human GHSR1a (Homo sapiens, UniProt Q92847)"
  qualitative label: "y"

Q: For this molecule, is IC50 lower than 30 nM? COc1ccc(CC(=O)N2CCC3(CC2)CN([C@@H]2CCc4cc(-n5nccn5)ccc42)C3)c(NC(C)=O)c1 [Example 6H]
Result: y

Q: Check if IC50 falls below 30 nM for COc1ccc(CC(=O)N2CCC3(CC2)CN([C@@H]2CCc4cc(-c5ncco5)ccc42)C3)cc1 [Example 3AD] .
Result: y

Q: Does COc1ccc(CC(=O)N2CCC3(CC2)CN(C2CCc4cc(-c5ccc(OC)cn5)ccc42)C3)nc1 (stereo not drawn) [Example 2A] have IC50 strictly under 30 nM?
Result: y

Q: Here's an entry: O=C(Cc1n[nH]c2ccccc12)N1CCC2(CC1)CN(C1CCc3cc(-c4ncccn4)ccc31)C2 (stereo not drawn) [Example 1C] . Is its IC50 below 30 nM?
Result: y
